- Tested on: CP325
- experiment notes: qHTS profiling for inhibitors of Plasmodium falciparum proliferation (AID 504749); further: nearly all actives have a fitted effect of over 60% in size
- conditions: P. falciparum in erythrocytes, SYBR Green DNA, 72 h; series mostly up to 28.7 µM
Results filed as inconclusive are left out. Calls of active or inactive are those of the source. The call rests on the fitted dose curve; in most records, active means well fitted inhibition curve with a large enough effect; inconclusive means small, poorly fitted or top-dose-only effect; inactive means flat fitted curve, though single readings scatter.
Give one outcome, nothing more. List: active, inactive

// known answers, use as guide
# molecule, group label
measured = [
    ("CC1(C)[C@@H](C=C(Cl)Cl)[C@@H]1C(=O)OCc1c(F)c(F)cc(F)c1F", "inactive"),
    ("[S]=[Sb][S][Sb]=[S]", "inactive"),
    ("C#CC1(O)C=CC2C3CCC4=CC(=O)CCC4C3CCC21CC (stereo unspecified)", "active"),
    ("C[C@]12C=CC(=O)C=C1CC[C@@H]1C2CC[C@]2(C)OC(=O)CCC12 (stereo partly specified)", "inactive"),
    ("CCCCCc1cc(O)c2c(c1)OC(C)(C)C1CC=C(C)CC21 (stereo unspecified)", "active"),
    ("Cc1cc(C)cc(C(=O)OC2CC3CCC(C2)N3C)c1 (stereo unspecified)", "inactive"),
    ("COc1ccc2c3c1O[C@H]1[C@@H](O)C=C[C@H]4C(C2)NCCC341 (stereo partly specified)", "inactive"),
    ("C#CCN1CC(=O)N(COC(=O)[C@@H]2[C@@H](C=C(C)C)C2(C)C)C1=O", "inactive"),
]

For Cc1ccc2c(c1)[C@@H]1CN(C)CC[C@H]1N2 , what call appears in the results of this test?
inactive

Answer briefly: the call reported for CC1CC[C@@]2(NC1)OC1CC3C4CC[C@@H]5CC(O)CC[C@@]5(C)C4CC[C@]3(C)C1C2C (stereo partly specified) in this assay.
inactive

====

- experiment notes: qHTS assay for cell viability of HEK293 cells (AID 743288); further: on the % scale 0 is the no-effect control and ±100 the full control effect; nearly all actives have a fitted effect of over 50% in size
- conditions: ATP luminescence (CellTiter-Glo), 18 h; hits give low values
Records with an inconclusive call do not appear.
readout: max response (%)
Note: unit % is implicit; provide only the numeric part.

# compound, measure unit, observed
rows = [
    ("ClCc1ccccc1Cl", "%", -1.39),
    ("O=S(=O)(c1ccc(Cl)cc1)c1cc(Cl)c(Cl)cc1Cl", "%", -31.9),
    ("COC(C)(C)CCC[C@H](C)C/C=C/C(C)=C/C(=O)OC(C)C", "%", -5.99),
    ("CCSCCSP(=O)(OC)OC", "%", -1.87),
    ("O=C1C=CC(=O)c2ccccc21", "%", -3.96),
    ("CCOP(=S)(OCC)Oc1ncn(-c2ccccc2)n1", "%", -0.263),
    ("COP(=O)(OC)O/C(=C\\Cl)c1cc(Cl)c(Cl)cc1Cl", "%", -7.38),
    ("CCNc1nc(NC(C)C)nc(SC)n1", "%", -10.8),
    ("CC(C)COP(=O)(OCC(C)C)OCC(C)C", "%", -10),
    ("N#CCNC(=O)c1cnccc1C(F)(F)F", "%", -6.61),
]

Continue with the next compound.
Record request: max response value, item Cc1cc(C)nc(Nc2ccccc2)n1
-15.1

====

- subject of test: Estrogen receptor (Homo sapiens)
- experiment notes: qHTS assay for small molecule antagonists of estrogen receptor alpha signaling (AID 588513)
- conditions: ER-alpha-UAS-bla HEK293, beta-lactamase ratio, antagonist mode; series mostly up to 76.9 µM
- Experimental: NIH Chemical Genomics Center [NCGC] U.S. Environmental Protection Agency [EPA] National Institutes of Environmental Health Sciences [NIEHS] National Toxicology Program [NTP] […] Using a beta-lactamase reporter-gene under control of the ER response element, a cell-based assay [ER-alpha-UAS-bla GripTiteTM cell-Based Assay from Invitrogen] was used to measure ER-alpha signaling pathway in antagonist mode. […] Library compounds were measured for their ability to inhibit the reporter gene activity. […]
Activity calls are given as the source filed them. The call rests on the fitted dose curve; in most records, active means well fitted curve in the direction sought with a large enough effect in the signal ratio, with a control signal flat (not every such curve was filed as active); inconclusive means small, poorly fitted or top-dose-only effect, or effect the other way, or a change in a side signal; inactive means no such curve, though single readings can be large or run the other way; the % refers to the signal ratio.
API: response.call in active, inactive

Consider the following illustrative entries.
# compound, group label
records = [
    ("Clc1ccc([C@]2(Cn3cncn3)C[C@H](Br)CO2)c(Cl)c1", "inactive"),
    ("CCCN(CCC)c1c([N+](=O)[O-])cc(C(F)(F)F)c(N)c1[N+](=O)[O-]", "active"),
    ("Cc1cnc(C2=NC(C)(C(C)C)C(=O)N2)c(C(=O)O)c1 (configuration not stated)", "inactive"),
    ("CCCCCCCCn1sccc1=O", "active"),
    ("CCCCC(CC)COC(=O)Cl (configuration not stated)", "inactive"),
]

Write down the call the test reported for this compound. Item: COc1cnc(OC)n2nc(NS(=O)(=O)c3c(OCC(F)F)cccc3C(F)(F)F)nc12
inactive

Assay result, entry CNC(=O)Oc1ccc(N(C)C)c(C)c1 — outcome?
inactive

Lab log entry: COCc1cnc(C2=NC(C)(C(C)C)C(=O)N2)c(C(=O)O)c1 (configuration not stated) — outcome as called in the assay?
inactive

What is the recorded call for this compound in the test? CC(Oc1cc(Cl)c(Cl)cc1Cl)C(=O)O (configuration not stated)
inactive

Which outcome was assigned to CC(C)(C)C(=O)[C@H](Oc1ccc(Cl)cc1)n1cncn1 in this test?
inactive

What did the test return for C=CC(=O)OCCCCCC(C)C ?
inactive

Could you please tell me the result logged for COCC(=O)N(c1c(C)cccc1C)[C@H](C)C(=O)OC in this assay?
inactive

====

Below, each of the compounds is paired with its reported activity change, negative = inhibition value.
- experiment notes: AP1 Signaling Pathway (AID 357);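 further: ME-180 reporter cells stimulated with EGF at its EC50 level; on the % scale 0 is the no-effect control and ±100 the full control effect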
- conditions: ME-180 (cervical carcinoma) AP-1-bla reporter, EGF-induced, beta-lactamase ratio, 5 h; at 17.2 µM (top of the series) unless noted
Records with an inconclusive call do not appear. Activity calls are given as the source filed them. The call rests on the fitted dose curve; in most records, active means well fitted curve in either direction with a large enough effect (not every such curve was filed as active); inconclusive means small, poorly fitted or top-dose-only effect, or another doubt; inactive means flat fitted curve, though single readings scatter.

# compound, observed
rows = [
    ("COc1ccc(Cn2c(O)c(C=NCCCn3ccnc3)c(=O)[nH]c2=O)cc1", "-15.8% (inactive)"),
    ("CCCN(CC#CCO)CCC", "-3.1% (inactive)"),
    ("CC(=O)[C@@H]1CC[C@@H]2[C@H]3CC[C@H]4C[C@@H](O)CC[C@]4(C)[C@@H]3C(=O)C[C@]21C", "-0.27% [at 38 µM] (inactive)"),
    ("NC(=NCCC[C@@H](N)C(=O)O)N[N+](=O)[O-]", "2.85% [at 38 µM] (inactive)"),
]

Which activity change, negative = inhibition is listed for O=c1[nH]c(=O)n(Cc2ccco2)c(O)c1C=NCCCn1ccnc1 ?
10% (inactive)

Query (compound): COC(=O)C(O)(c1ccc(NC(=O)c2ccco2)c(OC)c1)C(F)(F)F (configuration not stated) ; field requested: activity change, negative = inhibition
-12.5% (inactive)

Quick one: activity change, negative = inhibition of O=C1c2ccccc2C(=O)N1Cc1nc2ccccc2c(=O)n1-c1cccnc1 ?
24% (inactive)

====

- System: ATS95
- experiment notes: qHTS profiling for inhibitors of Plasmodium falciparum proliferation (AID 504749); further: nearly all actives have a fitted effect of over 60% in size
- conditions: P. falciparum in erythrocytes, SYBR Green DNA, 72 h; series mostly up to 28.7 µM
Records with an inconclusive call do not appear. Calls of active or inactive are those of the source. Calls follow the shape of the dose curve; as a rule, active = well fitted inhibition curve with a large enough effect; inconclusive = small, poorly fitted or top-dose-only effect; inactive = flat fitted curve, though single readings scatter.
readout: outcome

# molecule, readout, observed
records = [
    ("CC12CCC3C4CCC(=O)C(O)=C4CCC3C1CCC2OC(=O)CCC1CCCC1 (stereo not drawn)", "outcome", "inactive"),
    ("CC1(C)[C@@H](C=C(Cl)Cl)[C@@H]1C(=O)OCc1c(F)c(F)cc(F)c1F", "outcome", "inactive"),
    ("CCCCCC(O)C1C(=O)OC(C)C(O)\\C=C/C=C\\C=C/C=C\\C=C(\\C)C(O)C(O)C(O)CC(O)CC(O)CC(O)CC(O)CC1O (stereo not drawn)", "outcome", "inactive"),
]

====

- subject of test: Cytochrome P450 2D6 (Homo sapiens)
- experiment notes: qHTS Assay for Inhibitors and Substrates of Cytochrome P450 2D6 (AID 891);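 further: luciferin methyl ether substrate demethylated by CYP2D6 with NADPH regeneration; on the % scale 0 is the no-effect control and ±100 the full control effect; nearly all actives have a fitted effect of over 60% in size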
- conditions: recombinant CYP2D6, luciferin-ME EGE luminescence; series mostly up to 57.1 µM
Inconclusive results are not listed. The source made the active and inactive calls. Calls follow the shape of the dose curve; as a rule, active = well fitted inhibition curve with a large enough effect; inconclusive = small, poorly fitted or top-dose-only effect; inactive = no such curve, though single readings can be large or run the other way.
readout: outcome

# molecule smiles, subject of test, observed
records = [
    ("CC(C)[C@H]1C(=O)N2CCC[C@@H]2[C@]2(O)O[C@@](NC(=O)[C@H]3C=C4c5cccc6[nH]cc(c56)C[C@H]4N(C)C3)(C(C)C)C(=O)N12", "Cytochrome P450 2D6 (Homo sapiens)", "inactive"),
    ("CC(C)(C)[C@@]1(O)C[C@@H]2OC(=O)C[C@@]23C(=O)O[C@H]2OC(=O)[C@@H](O)[C@]231", "Cytochrome P450 2D6 (Homo sapiens)", "inactive"),
    ("O=C1OC(=O)[C@@H]2[C@@H]1[C@@H]1CC[C@H]2O1", "Cytochrome P450 2D6 (Homo sapiens)", "inactive"),
]
